- EXPERIMENTAL_TARGET: Delta-type opioid receptor (Rattus norvegicus)
- ASSAY_OVERVIEW: Displacement of [3H]DADLE from delta opioid receptor in rat brain at 100 nM after 60 mins by liquid scintillation counting method relative to control
PROPERTY_NAME: inhibition

Previously resolved entries follow.
| MOLECULE | EXPERIMENTAL_TARGET | inhibition |
| --- | --- | --- |
| Oc1cccc([C@]23CCC[C@H]([C@@H]2O)N(C[C@@H]2C[C@H]2c2ccccc2)CC3)c1 | Delta-type opioid receptor (Rattus norvegicus) | < 50% |
| C=CCN1C[C@H](C)N([C@H](c2ccc(C(=O)N(CC)CC)cc2)c2cccc(OC)c2)C[C@H]1C | Delta-type opioid receptor (Rattus norvegicus) | > 50% |
| Oc1cccc([C@]23CCC[C@H]([C@H]2O)N(CCc2ccccc2)CC3)c1 | Delta-type opioid receptor (Rattus norvegicus) | > 50% |
| Oc1cccc(C23CCCC(C2O)N(C/C=C/c2ccccc2)CC3)c1 (single isomer, unassigned) | Delta-type opioid receptor (Rattus norvegicus) | > 50% |

Consider now this further molecule.
In: Give inhibition for Oc1cccc([C@]23CCC[C@H]([C@@H]2O)N(C[C@H]2C[C@H]2c2ccccc2)CC3)c1 tested on Delta-type opioid receptor (Rattus norvegicus).
Out: < 50%

* * *

- EXPERIMENTAL_TARGET: Delta-type opioid receptor (Rattus norvegicus)
- ASSAY_OVERVIEW: Agonist activity at rat delta opioid receptor expressed in rat C6 cell membranes assessed as stimulation of [35S]GTPgammaS binding incubated for 1 hr by liquid scintillation counting method relative to DPDPE
- Type: functional
The compounds listed here are annotated with their Activity.
Quick note: give the figure in %, leave out the unit.

Previously resolved entries follow.
| COMPOUND | EXPERIMENTAL_TARGET | Activity (%) |
| --- | --- | --- |
| Oc1cccc([C@]23CCC[C@H]([C@H]2O)N(CCc2ccccc2)CC3)c1 | Delta-type opioid receptor (Rattus norvegicus) | 100 |
| O=[N+]([O-])c1ccc(CCN2CC[C@@]3(c4cccc(O)c4)CCC[C@@H]2[C@H]3O)cc1 | Delta-type opioid receptor (Rattus norvegicus) | 104 |
| Oc1cccc(C23CCCC(C2O)N(C/C=C/c2ccccc2)CC3)c1 (single isomer, unassigned) | Delta-type opioid receptor (Rattus norvegicus) | 51 |

Consider now this further compound.
In: Look up and state reported Activity for Oc1cccc([C@]23CCC[C@H]([C@H]2O)N(CCc2ccc(C(F)(F)F)cc2)CC3)c1
Out: 50

* * *

- EXPERIMENTAL_TARGET: Mu-type opioid receptor (Rattus norvegicus)
- Sequence (P33535 whole entry): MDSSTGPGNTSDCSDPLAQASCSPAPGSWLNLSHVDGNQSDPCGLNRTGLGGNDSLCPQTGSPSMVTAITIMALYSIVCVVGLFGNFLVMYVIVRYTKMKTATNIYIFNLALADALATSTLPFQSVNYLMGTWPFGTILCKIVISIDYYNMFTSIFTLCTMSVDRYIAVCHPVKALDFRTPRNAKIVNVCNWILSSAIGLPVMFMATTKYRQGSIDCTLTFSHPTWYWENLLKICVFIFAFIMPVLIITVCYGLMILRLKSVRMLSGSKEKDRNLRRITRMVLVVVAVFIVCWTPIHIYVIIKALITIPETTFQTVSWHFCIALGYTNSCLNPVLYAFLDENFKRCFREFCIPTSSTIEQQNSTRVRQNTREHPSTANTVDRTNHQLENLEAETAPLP
Ki strictly less than 10 nM = TRUE. Otherwise FALSE.

| MOLECULE | DISCRETE_LABEL |
| --- | --- |
| O=[N+]([O-])c1ccc(CCN2CC[C@]3(c4cccc(O)c4)CCC[C@H]2[C@@H]3O)cc1 | FALSE |
| Oc1cccc([C@]23CCC[C@H]([C@H]2O)N(CCc2ccccc2)CC3)c1 | TRUE |
| Oc1cccc(C23CCCC(C2O)N(C/C=C/c2ccccc2)CC3)c1 (single isomer, unassigned) | TRUE |
| Oc1cccc([C@@]23CCC[C@@H]([C@@H]2O)N(CC/C=C/c2ccccc2)CC3)c1 | FALSE |
| Oc1cccc([C@]23CCC[C@H]([C@@H]2O)N(C[C@@H]2C[C@H]2c2ccccc2)CC3)c1 | FALSE |

In: Check if Ki falls below 10 nM for Oc1cccc([C@]23CCC[C@H]([C@@H]2O)N(C[C@@H]2C[C@@H]2c2ccccc2)CC3)c1 .
Out: FALSE

In: Check if Ki falls below 10 nM for C=CCN1CC[C@@]2(c3cccc(O)c3)CCC[C@@H]1[C@H]2O .
Out: FALSE

In: Check if Ki falls below 10 nM for O=[N+]([O-])c1ccc(CCN2CC[C@@]3(c4cccc(O)c4)CCC[C@@H]2[C@H]3O)cc1 .
Out: TRUE

In: Check if Ki falls below 10 nM for Oc1cccc([C@]23CCC[C@H]([C@H]2O)N(CCc2ccc(C(F)(F)F)cc2)CC3)c1 .
Out: TRUE

In: Check if Ki falls below 10 nM for Oc1cccc([C@]23CCC[C@H]([C@@H]2O)N(C[C@H]2C[C@H]2c2ccccc2)CC3)c1 .
Out: FALSE
